# TESTED TARGET: Epac1 (Homo sapiens, UniProt O95398)
# Construct: made in house
# Sequence (O95398 192-923): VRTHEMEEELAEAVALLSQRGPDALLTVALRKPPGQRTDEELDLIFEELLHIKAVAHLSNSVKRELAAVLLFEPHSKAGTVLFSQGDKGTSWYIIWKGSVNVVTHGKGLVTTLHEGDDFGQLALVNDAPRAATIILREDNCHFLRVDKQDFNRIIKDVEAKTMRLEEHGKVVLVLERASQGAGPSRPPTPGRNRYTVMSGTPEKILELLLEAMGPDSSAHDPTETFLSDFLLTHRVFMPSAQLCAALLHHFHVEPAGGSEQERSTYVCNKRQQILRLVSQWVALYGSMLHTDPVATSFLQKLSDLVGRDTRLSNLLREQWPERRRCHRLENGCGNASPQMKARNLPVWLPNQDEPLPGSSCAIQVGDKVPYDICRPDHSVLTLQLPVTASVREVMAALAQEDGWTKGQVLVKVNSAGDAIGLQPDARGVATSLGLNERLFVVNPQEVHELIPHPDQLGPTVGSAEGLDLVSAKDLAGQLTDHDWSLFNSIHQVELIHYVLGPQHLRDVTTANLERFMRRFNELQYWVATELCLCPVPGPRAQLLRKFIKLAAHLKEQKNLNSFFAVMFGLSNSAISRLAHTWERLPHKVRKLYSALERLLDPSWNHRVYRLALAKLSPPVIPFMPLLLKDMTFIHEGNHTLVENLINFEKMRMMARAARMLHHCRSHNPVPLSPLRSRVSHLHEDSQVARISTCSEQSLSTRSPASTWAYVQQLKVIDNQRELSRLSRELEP
# ASSAY METHOD TEXT: Epac activation assay, Epac1
# Format: biochemical
# STUDY CONDITIONS: 70 μM compound
In this section, each of the compounds is paired with its reported kobs.

[
  {
    "COMPOUND": "Nc1ncnc2c1ncn2[C@@H]1O[C@@H]2COP(=O)(O)O[C@H]2[C@H]1O [cAMP, reference compound]",
    "TESTED TARGET": "Epac1 (Homo sapiens, UniProt O95398)",
    "UNIT": "s⁻¹",
    "kobs": 0.000848
  },
  {
    "COMPOUND": "COC1C2OP(=O)(O)OCC2OC1n1c(Sc2ccc(Cl)cc2)nc2c(N)ncnc21 [D-007, 8-pCPT-2′-O-Me-cAMP, reference compound]",
    "TESTED TARGET": "Epac1 (Homo sapiens, UniProt O95398)",
    "UNIT": "s⁻¹",
    "kobs": 0.0036
  },
  {
    "COMPOUND": "Cc1ccc(CSc2nc3c(N)ncnc3n2[C@@H]2O[C@@H]3CO[P@](O)(=S)O[C@H]3[C@H]2O)cc1",
    "TESTED TARGET": "Epac1 (Homo sapiens, UniProt O95398)",
    "UNIT": "s⁻¹",
    "kobs": 0.000164
  },
  {
    "COMPOUND": "Nc1ncnc2c1nc(SCc1ccccc1)n2[C@@H]1O[C@@H]2CO[P@](O)(=S)O[C@H]2[C@H]1O",
    "TESTED TARGET": "Epac1 (Homo sapiens, UniProt O95398)",
    "UNIT": "s⁻¹",
    "kobs": 0.000338
  }
]
